Reference for the values: the supplement of paper PMC10567573

B1: NET1 (parent)
chain: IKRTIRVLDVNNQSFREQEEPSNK

Variants of: B1
Test: protein stability index of a GFP-peptide fusion (GPS, HEK-293T) (PSI 1-6); higher = more stable;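 also: lentivirally expressed fusions sorted by FACS into six bins by GFP to DsRed ratio, PSI derived from sequencing read proportions per bin multiplied by bin number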
Details: c terminus: a fixed tail appended
Short version: protein stability index at least 3 is 1, less is 0.

| mutant | discrete_label |
| --- | --- |
| R3V | 0 |
| N12G | 1 |
| S14N | 1 |
| E19R | 0 |
| E20T | 1 |

### Prompt Determine whether measured protein stability index meets or exceeds 3 for R3H
### Response 1

### Prompt Also need T4L , thanks.
### Response 0

### Prompt Same question for L8W please.
### Response 1

### Prompt And the next one, Q18Y ?
### Response 0
